- assayProtocol: Ratio of IC50 for human HCT116 cells expressing wild type p53 to IC50 for human NHDF cells
- Type: cell-based, HCT-116
- conditionInfo: HCT116 cells expressing wild type p53 and NHDF cells, read-out: Ratio IC50
assayReadout: selectivity ratio
Please respond with just the number, no unit label.

Incoming: Requested read-out: selectivity ratio. Entry: Oc1cccc2ccc(/C=N/NC(=S)N3CCOCC3)nc12
Outgoing: 2770

====

Entries and their IC50 values follow.
- Test system: Raji
- assayProtocol: Dark cytotoxicity against human Raji cells after 72 hrs by MTT assay
- Assay type: cell-based
Response body: numeric value in nM, unit text excluded.

In [3]: df
Out[3]:
                            givensmiles  systemname  assayreadout  observedresult
0  Oc1cccc2ccc(/C=N/NC(=S)N3CCOCC3)nc12        Raji          IC50            21.2

// below: IC50 requested for another compound
Incoming: I have this compound here, S=C(NN=C(c1ccccn1)c1ccccn1)N1CCN(c2ccccc2)CC1 , and I need its recorded IC50.
Outgoing: 0.32
